Entries and their measured growth follow.
tested on: MDA-MB-231 breast; assay: NCI-60 one-dose screen, 48 h (100 = growth as untreated, 0 = no growth, -100 = all killed); conditions: 10 µM unless noted
Compounds without any hit were thinned out: in the full panel of roughly 83,000, 20% have a hit. Active and inactive are the calls of the source. Rule for the calls: active = growth percent below 10; inactive = the rest.
quantityKind: growth

{"columns": ["molecule", "experimentalResult"],
 "data": [
  ["COc1ccc(-c2cc(-c3ccc(OC)cc3)c3sc(=O)[nH]c3n2)cc1", "87.6% (inactive)"],
  ["COc1ccc(C(=O)OC2C(OC3C(O)COC(O[C@H]4C[C@H]5[C@@H]6CC=C7C[C@@H](O)CC[C@]7(C)[C@H]6CC[C@]5(C)[C@H]4[C@H](C)C(=O)CCC(C)C)C3OC(=O)C(C)C)OCC(O)C2O)cc1 (stereo partly specified)", "36.5% (inactive)"],
  ["Fc1ccc(-c2cnc3nonc3n2)c(F)c1", "78% (inactive)"],
  ["O=C(Nc1ccc([N+](=O)[O-])cc1)c1cc2ccccc2cc1O", "-35.5% (active)"],
  ["CCOC(=O)c1ccc(NC(=O)CSC(N)=O)cc1", "95.9% (inactive)"],
  ["C/C(=N\\Nc1ccc([N+](=O)[O-])cn1)c1ccc(N)cc1", "88.9% (inactive)"],
  ["CC(C)(C)OC[C@@H]1N=C(c2ccc(Br)cc2)Nc2nc3ccccn3c2C1=O", "61.5% (inactive)"],
  ["Nc1nc(NC2CC2)cc(-c2cccc(Cl)c2Cl)n1", "66.8% (inactive)"],
  ["COc1ccc(CNc2c3ccccc3nc3ccc(OC)cc23)cc1", "23.6% (inactive)"],
  ["COc1cc(OC)cc(-c2ccc(-c3ccc(C(=N)N)s3)s2)c1", "-80.5% (active)"],
  ["O=S(=O)(Cc1ccc(Cl)cc1Cl)c1ccc(Cl)cc1", "49.8% (inactive)"],
  ["CCN(CC)CC(=O)Nc1c(C)cc(C(=O)NN)cc1C", "103% (inactive)"],
  ["C[Si](C)(C)C(c1ccccc1)c1ccccc1", "123% (inactive)"],
  ["CN1C(=O)N(C)C2C1NN=c1s/c(=C\\c3ccc(Br)cc3)c(=O)n12 (stereo unspecified)", "66.1% (inactive)"],
  ["CC(C)CCSc1nc(-c2ccc(F)cc2)c(C#N)c(N2CCCCC2)n1", "88% (inactive)"],
  ["CCOC(=O)c1cc(C(=O)OCC)c(C)nc1C", "107% (inactive)"],
  ["CS(=O)(=O)c1ccc(C(=O)N/N=C/c2ccccc2O)cc1", "47.4% (inactive)"],
  ["COc1cnc2c(c1)C(=O)c1c-2n(CCCN2CCCC2)c(=O)c2cc(Cl)ccc12", "62.4% (inactive)"],
  ["CC(C)CCC(=O)[C@@H](C)[C@H]1[C@@H](OC2OCC(O)C(O)C2NS(C)(=O)=O)C[C@H]2[C@@H]3CC=C4C[C@@H](O)CC[C@]4(C)[C@H]3CC[C@]12C (stereo partly specified)", "43.8% (inactive)"],
  ["CC(C)c1cccc(C#N)c1", "102% (inactive)"],
  ["COc1cc(C2C(C#N)=C(N)Oc3cc4c(cc32)OCO4)cc2c1OCO2 (stereo unspecified)", "36.5% (inactive)"]
]}

---

tested on: MALME-3M melanoma; assay: NCI-60 one-dose screen, 48 h (100 = growth as untreated, 0 = no growth, -100 = all killed); settings: 10 µM unless noted
About 83,000 compounds went through this panel and 20% of them were active in at least one assay; those are over-represented in the sample as a whole.
Everything with growth lower than 60% is F; everything else, including exactly 60%, is T.

{"columns": ["compound", "targetUnderTest", "answerLabel"],
 "data": [
  ["COc1cc(C2CC(c3ccc(Cl)cc3)=NN2C(C)=O)ccc1Oc1ccnc2cc(Cl)ccc12 (stereo unspecified)", "MALME-3M melanoma", "F"],
  ["S=C(Cc1ccccc1)N1CCN(c2ccccc2Cl)CC1", "MALME-3M melanoma", "T"],
  ["COc1cc(C2CC(c3ccc(Cl)cc3)=NN2C=O)ccc1Oc1ccnc2cc(Cl)ccc12 (stereo unspecified)", "MALME-3M melanoma", "T"],
  ["CNC1=C([N+](=O)[O-])C(c2ccccc2O)C(C#N)=C(c2cccs2)O1 (stereo unspecified)", "MALME-3M melanoma", "F"],
  ["CN1C(=O)N(C)C2C1NN=c1s/c(=C\\c3ccsc3)c(=O)n12 (stereo unspecified)", "MALME-3M melanoma", "F"],
  ["O=C(O)c1cc2cc(OCc3ccccc3)ccc2[nH]1", "MALME-3M melanoma", "F"],
  ["COc1ccc(-n2c(COc3ccc(F)cc3)n[nH]c2=S)cc1", "MALME-3M melanoma", "T"],
  ["CCCCCCCCCCCC1=NC(C)(C)CN1CCO", "MALME-3M melanoma", "T"],
  ["CCN(CC)CC(=O)Nc1c(C)ccc(N)c1C", "MALME-3M melanoma", "T"],
  ["Nc1c(Br)cc2c(c1Br)Cc1cc(Cl)ccc1-2", "MALME-3M melanoma", "T"]
]}

---

test system: UO-31 renal; assay: NCI-60 one-dose screen, 48 h; conditions: 10 µM unless noted
This is part of a sample that, as a whole, favours compounds with a hit. Of some 83,000 tested, about 20% had one in any assay. Calls of active or inactive are those of the source. How the source made its calls: active means growth percent below 10; inactive means the rest.
Outcomes: active, inactive

{"columns": ["compound", "answerLabel"],
 "data": [
  ["C=C1C(=O)O[C@H]2[C@H]1CC/C(COC(=O)NCc1c[nH]c3ccc(OC)cc13)=C\\CC[C@@]1(C)O[C@@H]21", "active"],
  ["CCCCCCCC/C=C\\CCCCCCCC(=O)OCCCCCC", "inactive"],
  ["O=C1N(Cc2ccccc2Cl)c2ccccc2C12NN=C(c1ccccc1)S2 (stereo unspecified)", "inactive"],
  ["CCn1c(Cc2ccccc2Nc2c(Cl)cccc2Cl)nnc1SCC(=O)Nc1ccccc1C(F)(F)F", "inactive"],
  ["Clc1nnc2c3ccccc3ccn12", "inactive"],
  ["C=CCN1C(=O)/C(=c2\\sc3n(c2=O)C2C(NN=3)N(CC)C(=O)N2CC)c2ccccc21 (stereo unspecified)", "inactive"],
  ["C/C(=N\\Nc1ccc([N+](=O)[O-])cn1)c1ccc(N)cc1", "inactive"],
  ["COc1ccc(/C=C/C(=O)CCC(=O)O)cc1OC", "inactive"],
  ["CCCCCCCC/C=C/CCCCCCCC1=NC(C)(C)CN1C(C)C", "active"],
  ["COc1ccc2c(c1)C1=NN(C(=O)CO)[C@H](c3ccc(OC(F)(F)F)cc3)[C@@H]1CC2", "inactive"],
  ["CCCCCCCCCCCCCCCC1=NCCN1", "inactive"]
]}

---

tested on: SK-MEL-28 melanoma; test: NCI-60 one-dose screen, 48 h (100 = growth as untreated, 0 = no growth, -100 = all killed); settings: 10 µM unless noted
This is part of a sample that, as a whole, favours compounds with a hit. Of some 83,000 tested, about 20% had one in any assay.
Entries and their measured growth follow.

{"columns": ["molecule", "outputUnit", "growth"],
 "data": [
  ["COc1cc(C2CC(=O)Nc3c2cnn3C)cc(OC)c1OC (stereo not drawn)", "%", 119],
  ["c1csc(-c2cnc3nonc3n2)c1", "%", 104],
  ["Cc1cccc(/C=N/n2c(-c3ccc(Cl)cc3)nc3c(Br)cc(Br)cc3c2=O)c1", "%", 60.7],
  ["O=C(/C=C/c1cn(-c2ccccc2)nc1-c1ccccc1)OCc1cn(-c2cccc([N+](=O)[O-])c2)nn1", "%", 92.1],
  ["CC(=O)Cc1ccccn1", "%", 106],
  ["CN(C)CC(=O)c1ccc2cc(Br)c3ccccc3c2c1", "%", 99.1],
  ["O=C1SCN(Cc2ccccc2)CN1Cc1ccccc1", "%", 111],
  ["COc1cc(C2CC(c3ccc(C)cc3)=NN2C=O)ccc1Oc1nc2c(c(=O)n(C)c(=O)n2C)n1C (stereo not drawn)", "%", 106],
  ["Nc1cc(C(=O)O)cc(C(=O)O)c1", "%", 115],
  ["NC(N)=N/N=C/c1ccc(Cl)cc1", "%", 93.5],
  ["CS(=O)(=O)c1ccc(C(=O)N/N=C/c2ccc3c(c2)OCO3)cc1", "%", 114],
  ["Oc1ccc(-c2nnc3c4[nH]ccc4ncn23)cc1", "%", 102],
  ["Fc1ccc(-c2cnc3nonc3n2)c(F)c1", "%", 101],
  ["O=C1c2cccc3cccc(c23)C(=O)N1CCCCCCCCCCN1C(=O)c2cccc3cccc(c23)C1=O", "%", 109],
  ["N/C(=N\\OC(=O)c1ccccc1)C(Cc1ccccc1)C(=O)NOC(=O)c1ccccc1 (stereo not drawn)", "%", 89.6],
  ["COc1ccccc1-[n+]1cc(-c2ccc(-c3ccccc3)cc2)n2c1CCCCC2", "%", 27.8],
  ["COc1ccc(-c2nc3c(c(-c4ccc(Cl)cc4)nn3-c3ccccc3)c(-c3ccc(O)cc3)c2C#N)cc1", "%", 59.2],
  ["O=C(CCCCCCN1CC(=O)N2[C@@H](c3ccc(Cl)c(Cl)c3)c3[nH]c4ccccc4c3C[C@H]2C1=O)NO", "%", 52.4],
  ["c1cc2c(cc1-c1cnc3nonc3n1)OCO2", "%", 104],
  ["O=C(O)c1cc2cc(OCc3ccccc3)ccc2[nH]1", "%", 48],
  ["CNC(=O)c1c(NC(=O)c2ccc(C(C)C)cc2)sc2c1CCC(=O)C2", "%", -32.1],
  ["COc1ccc(C(=O)O)cc1.[Ag]", "%", 110],
  ["CCN(CC)CCNC(=O)n1cc(-c2ccncc2)c(-c2ccc(Cl)c(OC)c2)n1", "%", 90.2]
]}
